- Test system: LX-1 lung xenograft sc, nude mice, tumor weight
- PROTOCOL_DESCRIPTION: NCI In Vivo Anticancer Drug Screen. Data for tumor model Human Lung LX-1 Xenograft (subcutaneous) in NU/NU Swiss (nude) mice
- ASSAY_CONTEXT: endpoint: optimum tumor weight change; dose: 25.0 mg/kg/injection; schedule: Q04DX003 (ip); vehicle: Klucel (hydroxypropylcellulose) (HPC); higher = larger tumour
Measured T/C, listed per entry for reference.

Reference set, count: 5
CC(=O)OCC(=O)[C@@]12OC(C)(C)O[C@@H]1C[C@H]1[C@@H]3CC(C=O)=C4C=C(OCCCl)CC[C@]4(C)[C@@]3(F)[C@@H](O)C[C@@]12C | 96 % of control
CCN(C)N=Nc1ccc(C(N)=O)cc1 | 67 % of control
Nc1nc(N)c2cc(CNc3ccc(C(=O)NC(CC(=O)O)CC(=O)O)cc3)ccc2n1 | 78 % of control
CCOC(=O)C1C2OC(=O)C(C(=O)C2CN(CCCl)CCCl)C1C1CC=C(CC2=CCC(C3C4C(=O)OC(C(CN(CCCl)CCCl)C4=O)C3C(=O)OCC)CC2)CC1 (stereo unspecified) | 58 % of control
CN(C)N=Nc1cccc(C(N)=O)c1 | 36 % of control

Consider the additional molecule presented here.
What value of T/C has been reported for the following molecule? OC(CBr)C(O)C(O)C(O)CBr (stereo unspecified)
98 % of control

###

Measured T/C, listed per entry for reference.
- Test system: LX-1 lung xenograft sc, nude mice, tumor weight
- PROTOCOL_DESCRIPTION: NCI In Vivo Anticancer Drug Screen. Data for tumor model Human Lung LX-1 Xenograft (subcutaneous) in NU/NU Swiss (nude) mice
- ASSAY_CONTEXT: endpoint: optimum tumor weight change; dose: 50.0 mg/kg/injection; schedule: Q04DX003 (ip); vehicle: saline with Tween-80; higher = larger tumour
- Protocol: The antitumor activity of compounds was measured in mice bearing transplantable tumors. Survival or tumor size were measured and the results are expressed as the measurement made in the treated group (T) divided by the measurement made in the vehicle treated control group (C). The tumor model used in this assay is Human Lung LX-1 Xenograft (subcutaneous) in NU/NU Swiss (nude) mice

Reference set, count: 3
CC(=O)OCC1OC(n2cc(CBr)nn2)C(OC(C)=O)C(OC(C)=O)C1OC(C)=O (centres undefined) | 61 % of control
O=Cc1ccc(O)c(O)c1 | 114 % of control
CC(=O)Oc1ccc[nH]c1=O | 91 % of control

Consider the additional compound presented here.
What value of T/C has been reported for the following compound? CCN(CC)CCCC(C)Nc1c2ccc(Cl)cc2nc2ccc(OC)cc12 (centres undefined)
99 % of control

###

- Test system: LX-1 lung xenograft sc, nude mice, tumor weight
- PROTOCOL_DESCRIPTION: NCI In Vivo Anticancer Drug Screen. Data for tumor model Human Lung LX-1 Xenograft (subcutaneous) in NU/NU Swiss (nude) mice
- ASSAY_CONTEXT: endpoint: optimum tumor weight change; dose: 50.0 mg/kg/injection; schedule: Q04DX003 (ip); vehicle: Klucel (hydroxypropylcellulose) (HPC); higher = larger tumour
Measured T/C, listed per entry for reference.

Reference set, count: 3
O=S(CCCl)CCCl | 61 % of control
CCN(C)N=Nc1ccc(C(N)=O)cc1 | 9 % of control
CC(=O)OCC(=O)[C@@]12OC(C)(C)O[C@@H]1C[C@H]1[C@@H]3CC(C=O)=C4C=C(OCCCl)CC[C@]4(C)[C@@]3(F)[C@@H](O)C[C@@]12C | 106 % of control

What value of T/C has been reported for the following molecule? OC(CBr)C(O)C(O)C(O)CBr (configuration not stated)
66 % of control

Okay, and CCCC(=O)OCc1cc(=O)n(C)c2c3c4c(cc12)c(C)cc(=O)n4CO3 ?
116 % of control

Okay, and CCOC(=O)C1C2OC(=O)C(C(=O)C2CN(CCCl)CCCl)C1C1CC=C(CC2=CCC(C3C4C(=O)OC(C(CN(CCCl)CCCl)C4=O)C3C(=O)OCC)CC2)CC1 (configuration not stated) ?
64 % of control

Okay, and CN(C)N=Nc1cn[nH]c1C(N)=O ?
2 % of control

###

- Test system: LX-1 lung xenograft sc, nude mice, tumor weight
- PROTOCOL_DESCRIPTION: NCI In Vivo Anticancer Drug Screen. Data for tumor model Human Lung LX-1 Xenograft (subcutaneous) in NU/NU Swiss (nude) mice
- ASSAY_CONTEXT: endpoint: optimum tumor weight change; dose: 200.0 mg/kg/injection; schedule: Q04DX003 (ip); vehicle: saline; higher = larger tumour
QUANTITY: T/C

N=c1nc2n(cc1F)[C@@H]1O[C@H](CO)[C@@H](O)[C@@H]1O2 | 59 % of control
COC(OC(CO)C(O)S(=O)(=O)O)C(O)S(=O)(=O)O (stereo not given) | 45 % of control
CN(N=O)C(=O)N[C@@H](C=O)[C@@H](O)[C@H](O)[C@H](O)CO | 64 % of control

What value of T/C has been reported for the following compound? N=c1ccn2c(n1)OC1C(O)C(CO)OC12 (stereo not given)
66 % of control

Okay, and Nc1cc2[nH]cnc2c(=O)[nH]1 ?
112 % of control
